System: ATP;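 further: ATP exposure 15 min at 22 °C before imaging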
Assay: switch fluorescence ratio, 500 uM ATP over buffer (Cy3 cluster intensity, sum of 5 cycles each) (fold (ratio)); higher = stronger signal-on switching upon ATP binding; sequences stand for … in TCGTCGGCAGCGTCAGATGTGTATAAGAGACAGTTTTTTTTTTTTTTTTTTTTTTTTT…TC
Settings: aptamer strand: ATP DNA aptamer (quencher-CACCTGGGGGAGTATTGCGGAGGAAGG + anchor), 100 nM annealed; ATP concentration: 500 uM
quantity_name: switch fluorescence ratio
Enter a number only.

Use the examples below as a reference point.
>>> df
   residue_string              quantity_name  reported
0      GACATAGCGG  switch fluorescence ratio      1.07
1      TGACGGGTTA  switch fluorescence ratio      1.02
2      AATATAAATA  switch fluorescence ratio      1.02
3      TTTATAGAGT  switch fluorescence ratio      1.03
4      CCGGGGTAGA  switch fluorescence ratio      1.02

Sure, the documented switch fluorescence ratio for TAATCATCGA is 0.99

The sequence GGATTGAATG showed switch fluorescence ratio equal to 0.972

Measured switch fluorescence ratio of TTGGGGGGGC : 0.997

Recorded switch fluorescence ratio (sequence ATAGTGTGTT ): 0.989

So for GGTTGGGCGA , the logged switch fluorescence ratio turned out to be 0.986

Sample AAAGGTATGG ; switch fluorescence ratio observed: 0.961

Reported switch fluorescence ratio of TGGTTGTTAT : 1.01

Short answer for GTGGCGGTG : switch fluorescence ratio was 0.985

switch fluorescence ratio recorded for this sequence, CCTTCGGAGT , is 3.99

The measured switch fluorescence ratio associated with GTGTAAGACC reads 1.03

Data point: TTTCAGGTGT ; switch fluorescence ratio = 2.15

AAAGAGGCAA yielded switch fluorescence ratio of 1.03

So, CCTTGTATTT ? Its switch fluorescence ratio was 1.01

The recorded switch fluorescence ratio for CGCGGGCCGT is 0.981

# switch fluorescence ratio of ATTATCTAAT = 1

sequence AATCATTGTT , switch fluorescence ratio observed: 1.02

So for GAGATTGGAA , the logged switch fluorescence ratio turned out to be 1

Short answer for GGGTACGCAC : switch fluorescence ratio was 1.82

The value of switch fluorescence ratio measured for the sequence CAGTGGGGGA turned out to be 0.993

// sample CACTACGGCC , its switch fluorescence ratio was 1.04

For GAGGAGGGTA the sequence record lists switch fluorescence ratio as 0.966

Notebook: ACAATGAAGA , switch fluorescence ratio read as 1.01

The reported switch fluorescence ratio of the sequence CGGGACGCGA was 1.28

Short answer for CAACGTTTTT : switch fluorescence ratio was 1.01

====

System: ATP;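 further: ATP exposure 15 min at 22 °C before imaging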
Assay: switch fluorescence ratio, 500 uM ATP over buffer (Cy3 cluster intensity, sum of 5 cycles each) (fold (ratio)); higher = stronger signal-on switching upon ATP binding; sequences stand for … in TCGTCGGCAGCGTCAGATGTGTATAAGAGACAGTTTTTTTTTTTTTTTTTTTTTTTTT…TC
Conditions: aptamer strand: ATP DNA aptamer (quencher-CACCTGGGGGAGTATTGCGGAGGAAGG + anchor), 100 nM annealed; ATP concentration: 500 uM
Parameter switch fluorescence ratio: see the listing below.
Number only, please.

// known answers, use as guide
In [3]: df
Out[3]:
   residue_string              quantity_name  reported
0      TTTTTTTGTC  switch fluorescence ratio      1.02
1      GCAAATTTTA  switch fluorescence ratio      1.02
2      TATTCAGTCG  switch fluorescence ratio     0.993
3      GATATATATG  switch fluorescence ratio      1.01
4      TTATGGGGAA  switch fluorescence ratio     0.987
5      AAGTTTCGCG  switch fluorescence ratio     0.976
6      CAATAGGGGG  switch fluorescence ratio         1
7      GTTTGTACCG  switch fluorescence ratio         1
8      GTAAGGGGCG  switch fluorescence ratio      1.02
9      TAAAGGAGTT  switch fluorescence ratio     0.981

Now turn to the next sequence.
switch fluorescence ratio recorded for this sequence, GAGTTTGAGT , is 0.982
